- System: ALK (Homo sapiens)
- Construct: Kinases are expressed as either kinase domains or full length constructs fused to glutathione S-transferase (GST) or polyHistidine tagged fusion proteins
- Assay Text: inhibitory potency against ALK (kinase inhibition assay)
pIC50: −log10 of the molar value.
Readings of pIC50 for the listed molecules
Value Kind: pIC50

>>> measured_result("CP(C)(=O)c1ccc(Nc2ncc(C(F)(F)F)c(NCC34CC5CC(CC(C5)C3)C4)n2)cc1")
"< 8.00"
>>> measured_result("CN1CCN(Nc2nc(Nc3ccc(P(C)(C)=O)cc3)ncc2C(F)(F)F)CC1")
"< 8.00"
>>> measured_result("COc1cc(P(C)(C)=O)ccc1Nc1ncc(C)c(Nc2ccccc2S(=O)(=O)C(C)C)n1")
"8.00 to 8.70"
>>> measured_result("COc1nc(P(C)(C)=O)ccc1Nc1ncc(Cl)c(Nc2ccccc2S(=O)(=O)C(C)C)n1")
"> 8.70"
>>> measured_result("COc1cc(P(C)(C)=O)ccc1Nc1ncc(Cl)c(Nc2ccccc2)n1")
"< 8.00"
>>> measured_result("COc1cc(P(C)(C)=O)ccc1Nc1ncc(Cl)c(Nc2ccccc2S(=O)(=O)C(C)C)n1")
"> 8.70"
>>> measured_result("CC(C)S(=O)(=O)c1ccccc1Nc1nc(Nc2ccc(P(C)(C)=O)cc2)ncc1Cl")
"8.00 to 8.70"
>>> measured_result("COc1cc(N2CCC(N3CCN(C)CC3)CC2)ccc1Nc1ncc(Cl)c(Nc2ccc(P(C)(C)=O)cc2)n1")
"< 8.00"
>>> measured_result("COc1cc(P(C)(C)=O)ccc1Nc1ncc(N)c(Nc2ccccc2S(=O)(=O)C(C)C)n1")
"< 8.00"

====

- System: ALK (Homo sapiens)
- Construct: Kinases are expressed as either kinase domains or full length constructs fused to glutathione S-transferase (GST) or polyHistidine tagged fusion proteins
- Assay Text: inhibitory potency against ALK (kinase inhibition assay)
pIC50: −log10 of the molar value.
The following compounds are shown together with reported pIC50 values.
Value Kind: pIC50

>>> measured_result("COc1cc(P(C)(C)=O)ccc1Nc1ncc2[nH]c(=O)n(-c3ccccc3S(=O)(=O)C(C)C)c2n1")
"< 8.00"
>>> measured_result("CP(C)(=O)c1ccc(Nc2ncc(C(F)(F)F)c(NN3CCOCC3)n2)cc1")
"< 8.00"
>>> measured_result("CCc1cc(P(C)(C)=O)ccc1Nc1ncc(Cl)c(Nc2ccccc2S(=O)(=O)C(C)C)n1")
"> 8.70"
>>> measured_result("COc1cc(P2(=O)CCNCC2)ccc1Nc1nccc(Nc2ccccc2S(=O)(=O)C(C)C)n1")
"8.00 to 8.70"

====

- System: ALK (Homo sapiens, UniProt Q9UM73)
- Construct: Kinases are expressed as either kinase domains or full length constructs fused to glutathione S-transferase (GST) or polyHistidine tagged fusion proteins; made in house; host or cells: E. coli or Baculovirus-High Five (not specified which for ALK)
- Sequence (Q9UM73 19-1620): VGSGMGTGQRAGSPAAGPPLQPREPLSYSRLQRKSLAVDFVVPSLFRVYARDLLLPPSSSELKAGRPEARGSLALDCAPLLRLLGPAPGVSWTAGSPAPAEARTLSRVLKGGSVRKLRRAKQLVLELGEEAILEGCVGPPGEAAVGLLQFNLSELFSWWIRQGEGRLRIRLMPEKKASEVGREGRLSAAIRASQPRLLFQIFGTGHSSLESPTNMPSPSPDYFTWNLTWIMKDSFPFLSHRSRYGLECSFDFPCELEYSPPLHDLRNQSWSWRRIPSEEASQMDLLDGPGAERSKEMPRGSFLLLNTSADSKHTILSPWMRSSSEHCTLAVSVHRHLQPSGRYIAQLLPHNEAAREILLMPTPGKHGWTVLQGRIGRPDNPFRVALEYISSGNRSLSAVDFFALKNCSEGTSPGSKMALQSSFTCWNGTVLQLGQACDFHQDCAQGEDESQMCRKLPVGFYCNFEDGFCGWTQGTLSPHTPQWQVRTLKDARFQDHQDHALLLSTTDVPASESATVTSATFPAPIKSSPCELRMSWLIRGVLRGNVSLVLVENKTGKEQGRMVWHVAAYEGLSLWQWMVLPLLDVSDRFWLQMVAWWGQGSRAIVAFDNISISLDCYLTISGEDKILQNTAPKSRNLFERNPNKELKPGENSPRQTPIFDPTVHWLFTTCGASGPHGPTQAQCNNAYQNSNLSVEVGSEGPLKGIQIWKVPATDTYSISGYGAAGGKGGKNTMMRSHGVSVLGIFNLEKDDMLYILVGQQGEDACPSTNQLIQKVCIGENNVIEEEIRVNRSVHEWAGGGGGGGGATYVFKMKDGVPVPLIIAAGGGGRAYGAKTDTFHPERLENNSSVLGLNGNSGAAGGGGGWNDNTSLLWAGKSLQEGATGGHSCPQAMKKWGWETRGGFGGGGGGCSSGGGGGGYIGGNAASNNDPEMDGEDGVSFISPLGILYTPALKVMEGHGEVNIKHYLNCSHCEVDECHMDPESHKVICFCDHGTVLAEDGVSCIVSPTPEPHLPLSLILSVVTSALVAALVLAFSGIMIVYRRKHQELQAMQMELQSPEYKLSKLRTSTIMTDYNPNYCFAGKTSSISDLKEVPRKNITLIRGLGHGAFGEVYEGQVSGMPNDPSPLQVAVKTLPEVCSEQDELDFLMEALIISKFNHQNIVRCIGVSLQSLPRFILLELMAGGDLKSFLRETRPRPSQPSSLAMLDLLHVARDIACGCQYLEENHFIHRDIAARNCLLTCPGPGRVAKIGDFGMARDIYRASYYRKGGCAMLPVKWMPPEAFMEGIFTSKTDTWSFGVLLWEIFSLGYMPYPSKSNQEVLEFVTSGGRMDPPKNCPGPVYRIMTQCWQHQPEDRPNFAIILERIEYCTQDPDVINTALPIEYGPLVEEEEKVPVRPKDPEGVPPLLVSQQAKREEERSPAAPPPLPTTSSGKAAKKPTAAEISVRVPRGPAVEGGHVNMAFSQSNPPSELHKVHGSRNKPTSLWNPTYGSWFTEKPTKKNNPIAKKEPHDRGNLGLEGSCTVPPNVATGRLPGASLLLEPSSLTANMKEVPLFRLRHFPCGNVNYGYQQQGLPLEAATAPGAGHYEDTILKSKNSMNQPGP
- Assay Text: inhibitory potency against ALK (kinase inhibition assay)
- Assay type: biochemical
Value Kind: IC50

>>> measured_result("COc1nc(P(C)(C)=O)cnc1Nc1ncc(Cl)c(Nc2ccccc2S(=O)(=O)C(C)C)n1")
"> 10 nM"
>>> measured_result("CP(C)(=O)c1ccc(Nc2ncc(C(F)(F)F)c(NN3CC4CCCC4C3)n2)cc1 (stereo not shown)")
"> 10 nM"
>>> measured_result("COc1cc(P(C)(C)=O)ccc1Nc1nccc(Nc2ccccc2S(=O)(=O)C(C)C)n1")
"> 10 nM"
>>> measured_result("CC(C)S(=O)(=O)c1ccccc1Nc1nc(Nc2ccc(P(C)(C)=O)cc2F)ncc1Cl")
"2 to 10 nM"
>>> measured_result("COc1ccc(P(C)(C)=O)cc1Nc1ncc(Cl)c(Nc2ccccc2S(=O)(=O)C(C)C)n1")
"2 to 10 nM"
>>> measured_result("CC(C)S(=O)(=O)c1ccccc1Nc1nc(Nc2ccc(P(C)(C)=O)cc2Cl)ncc1Cl")
"< 2 nM"
>>> measured_result("CP(C)(=O)c1ccc(Nc2ncc(C(F)(F)F)c(NCCc3c[nH]c4ccccc34)n2)cc1")
"> 10 nM"
>>> measured_result("Cc1cc(P(C)(C)=O)ccc1Nc1ncc(Cl)c(Nc2ccccc2S(=O)(=O)C(C)C)n1")
"< 2 nM"
>>> measured_result("COc1cc(P(C)(C)=O)ccc1Nc1nc(Nc2ccccc2S(=O)(=O)C(C)C)c2cc[nH]c2n1")
"< 2 nM"
>>> measured_result("Cc1cc(C)cc(Nc2nc(Nc3ccc(P(C)(C)=O)cc3)ncc2C(F)(F)F)c1")
"> 10 nM"
>>> measured_result("COc1cc(P(C)(C)=O)ccc1Nc1ncc(C(F)(F)F)c(Nc2ccccc2S(=O)(=O)C(C)C)n1")
"2 to 10 nM"
>>> measured_result("CP(C)(=O)c1ccc(Nc2ncc(C(F)(F)F)c(NCCc3ccc(S(N)(=O)=O)cc3)n2)cc1")
"> 10 nM"
>>> measured_result("CN1CCN(c2ccc(CNc3nc(Nc4ccc(P(C)(C)=O)cc4)ncc3C(F)(F)F)cc2)CC1")
"> 10 nM"
>>> measured_result("CC(C)S(=O)(=O)c1ccccc1Nc1nc(Nc2ccc(P(C)(C)=O)cc2OC(F)(F)F)ncc1Cl")
"< 2 nM"
>>> measured_result("CP(C)(=O)c1ccc(Nc2ncc(C(F)(F)F)c(NC34CC5CC(CC(C5)C3)C4)n2)cc1")
"> 10 nM"
>>> measured_result("CP(C)(=O)c1ccc(Nc2ncc(C(F)(F)F)c(NC3CCCO3)n2)cc1 (stereo not shown)")
"> 10 nM"

Where do the numbers come from? From patent US9273077B2.
